experiment: NCI Yeast Anticancer Drug Screen. Data for the rad14 strain (AID 159);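 further: 0% = growth of vehicle-treated control cultures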; conditions: S. cerevisiae rad14 strain growth inhibition; at 100.0 µM; stronger effect = higher value
About 79,000 compounds went through this panel and 15% of them were active in at least one assay; those are over-represented in the sample as a whole.
Endpoint: growth inhibition (%)
Answers are plain numbers, in %.

Recorded growth inhibition, per entry:
1. CC1=NN(C(=O)c2ccccc2O)C(=O)/C1=C/c1ccco1 :: 96
2. CCCCCCCCCCCCCCCCCCN(C)C(COC)COP(=O)([O-])OCC[N+](C)(C)C (stereo not drawn) :: 97
3. CC(C)S(=O)(=O)/C=C\S(=O)(=O)C(C)C :: 99

Hey, can you go through the list below and give me growth inhibition for every item?
1. O=C(C#Cc1ccccc1)Nc1ccccc1
2. O=[N+]([O-])c1ccc2nc(=S)[nH]n2c1
3. Cc1ccc(C)c(C(=N)c2ccccc2Cc2ccccc2)c1
4. O=C1c2ccccc2N2OC3(N4CCCC4)CCCCC3C12c1ccccc1 (stereo not drawn)
5. O=[N+]([O-])c1ccc(C(c2c[nH]c3ccccc23)c2c[nH]c3ccccc23)cc1

*A*
97
59
98
98
84

###

assay: NCI Yeast Anticancer Drug Screen. Data for the wt1 strain (AID 149);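 further: 0% = growth of vehicle-treated wt1 cultures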; conditions: S. cerevisiae wt1 strain (SPY 50644) growth inhibition; at 1.2 µM; stronger effect = higher value
This is part of a sample that, as a whole, favours compounds with a hit. Of some 79,000 tested, about 15% had one in any assay.
Assign growth inhibition to each entry below.
Give bare numbers, in %.

Recorded growth inhibition, per entry:
1. CC1=C(C)C(=O)C2=C(OCCO2)C1=O :: -4
2. Cc1ccc(S(=O)(=O)NC(=O)C2C(=O)CC3(CCCCC3)CC2=O)cc1 :: -22
3. COc1ccc(C(=O)/C=C\c2ccc(Cl)c(Cl)c2)cc1 :: 26

Hey, can you go through the list below and give me growth inhibition for every item?
1. CC(=O)O[C@H]1CC[C@@]2(C)C(=CC[C@@H]3C2CC[C@]2(C)C(=O)NC(=O)CC32)C1 (stereo not given in full)
2. N#CCC(=O)N/N=C(\c1ccccc1)C(c1ccccc1)C1(O)C(=O)Nc2c(Cl)ccc(Cl)c21 (stereo not given)

*A*
-17
0

###

experiment: NCI Yeast Anticancer Drug Screen. Data for the rad52 strain (AID 147);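 further: 0% = growth of vehicle-treated control cultures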; settings: S. cerevisiae rad52 mutant growth inhibition; at 1.2 µM; stronger effect = higher value
Compounds without any hit were thinned out: in the full panel of roughly 79,000, 15% have a hit.
Endpoint: growth inhibition (%)
Numbers only, in %.

Recorded growth inhibition, per entry:
1. O=C(O)CNC(c1ccccc1)(c1ccccc1)c1ccccc1 :: -9
2. CCCN=Cc1cc(Cc2ccc(O)c(C=NCCC)c2)ccc1O :: 70

Hey, can you go through the list below and give me growth inhibition for every item?
1. O=[N+]([O-])c1cccc2nc3ccccc3c(NCCCN3CCCCC3)c12
2. COc1cccc(/C=C2\S/C(=N/Nc3nc(-c4ccc([N+](=O)[O-])cc4)cs3)NC2=O)c1O
3. O=[N+]([O-])[O][Sn]([O][Sn]([O][N+](=O)[O-])([c]1ccccc1)[c]1ccccc1)([c]1ccccc1)[c]1ccccc1
4. COc1ccc2nc3cccc([N+](=O)[O-])c3c(NCCNCCO)c2c1
5. c1ccc2c(c1)N=C1CCCC3CCCC123 (centres undefined)
6. CNC(=O)OCc1c2ccncc2c(C)c2c1[nH]c1ccccc12
7. CCC(/C=C/c1ccccc1)=N\Nc1ccc(Cl)cc1

*A*
1: 89; 2: 15; 3: 6; 4: 69; 5: 3; 6: 59; 7: -1

Hey, can you go through the list below and give me growth inhibition for every item?
1. C/C(=N/NC(=S)Nc1ccccc1C)c1ccccn1
2. CC1=COC2=C(C)C(=O)C(=O)c3c(C)ccc1c32
3. CC(C)(Br)C(=O)/C=C/c1ccccc1
4. COc1ccc(-c2cc(-c3cc(C)cc(Cl)c3O)nc3[nH]c(=S)[nH]c(=S)c23)cc1

*A*
1: 2; 2: 20; 3: 8; 4: 1

###

assay: NCI Yeast Anticancer Drug Screen. Data for the sgs1 mgt1 strain (AID 161);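 further: 0% = growth of cultures given vehicle only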; details: S. cerevisiae sgs1 mgt1 strain, at 50.0 µM, stronger effect = higher value
This is part of a sample that, as a whole, favours compounds with a hit. Of some 79,000 tested, about 15% had one in any assay.
Assign growth inhibition to each entry below.
Answers are plain numbers, in %.

Recorded growth inhibition, per entry:
1) CNC(=O)OCc1c(COC(=O)NC)c(C)n(-c2ccc(Br)cc2)c1C :: 78
2) CCCCCCCCSC1=C(Cl)C(=O)C(OC)=C(OC)C1=O :: 69.1
3) Cc1c(C(=O)/C=C/c2ccccc2[N+](=O)[O-])[n+](=O)c2ccccc2n1[O-] :: 98

Hey, can you go through the list below and give me growth inhibition for every item?
1. CCN(CC)C(=S)N/N=C(\C)c1ccccc1O
2. CCCCN(CCC#N)c1ccc(/C=C/c2ccnc3ccccc23)cc1
3. CNC(=O)OCc1c2ccncc2c(C)c2c1[nH]c1ccccc12
4. CC(C)OC(=O)NNc1cccc(Cl)c1
5. Nc1cccc(-c2cc[cH-]c2)c1.[Fe+2].c1cc[cH-]c1
6. COc1ccc(N=c2cc(-c3ccccc3)oc3ccccc23)cc1

*A*
94
14.9
51.5
96.8
31.4
87.1

Hey, can you go through the list below and give me growth inhibition for every item?
1. OC(CC(O)(C(F)(F)F)C(F)(F)F)c1ccc(C(O)CC(O)(C(F)(F)F)C(F)(F)F)cc1 (stereo unspecified)
2. Cc1ccc([N+](=O)[O-])c2c(NCCC[N+](C)(C)[O-])c3ccccc3nc12

*A*
[99.5, 56.8]

###

assay: NCI Yeast Anticancer Drug Screen. Data for the rad50EPP+ strain (AID 151);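 further: 0% = growth of vehicle-treated control cultures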; settings: S. cerevisiae rad50 mutant strain, at 1.2 µM, stronger effect = higher value
Compounds without any hit were thinned out: in the full panel of roughly 79,000, 15% have a hit.
Endpoint: growth inhibition (%)
One number for each entry, in %.

Hey, can you go through the list below and give me growth inhibition for every item?
1. Cc1c2c(nc3ccccc13)C(=O)c1cccnc1C2=O
2. COc1ccc2nc(CCc3ccccc3)ccc2c1
3. CCC(C)COC(=O)Nc1cccc(Cl)c1 (centres undefined)
4. CCC(=O)C1=C(O)c2cc(OC)ccc2CC1C(=O)OC (centres undefined)
5. CC1=CC(C)(C)SC(SSSC2=NC(C)=CC(C)(C)S2)=N1

*A*
1. -6
2. -7
3. 6
4. 2
5. -1

Hey, can you go through the list below and give me growth inhibition for every item?
1. O=C1c2ccccc2N2OC3(N4CCCC4)CCCCC3C12c1ccccc1 (centres undefined)
2. CNCC(C)CNC
3. Nc1ccc(N=Nc2ccc(-c3ccc(O)cc3)cc2)c2ccc(S(=O)(=O)O)cc12
4. O=C1C(CCSc2ccccc2)C(=O)N(c2ccccc2)C1c1ccccc1 (centres undefined)
5. Cc1cccc(/C=N/NC(=S)NC2CCCCC2)n1
6. NC(=S)N/N=C1\c2ccccc2CCC1CCC1(O)CCc2ccccc2C1=O (centres undefined)

*A*
[-33, -14, 7, -4, -8, 36]

Hey, can you go through the list below and give me growth inhibition for every item?
1. O=CC1(F)CC1(c1ccccc1)c1ccccc1 (centres undefined)
2. CCC(=O)Nc1ccc(N=NN(C)C)cc1
3. O=[N+]([O-])c1cccc2nc3ccccc3c(NCCCN3CCCCC3)c12
4. O=NC1c2cccc3cccc(c23)C1N=O (centres undefined)
5. O=C(O)c1ccc2cc(Cl)c3ccccc3c2c1
6. COc1cc(OC)c(CSCC(NC(=O)OCC2c3ccccc3-c3ccccc32)C(=O)O)c(OC)c1 (centres undefined)

*A*
-1
-10
83
11
3
-2

Hey, can you go through the list below and give me growth inhibition for every item?
1. Cc1ccc(NC(Nc2ccc(C)cc2C)=C(C(Cl)=C(Cl)Cl)[N+](=O)[O-])c(C)c1
2. CC(=O)CC(c1ccccc1)c1c(O)c2ccccc2oc1=O (centres undefined)
3. COc1ccc2c3c1OC(C)C31CC(=O)CCC1CC2 (centres undefined)
4. CCCCCCCCCC(=O)N(CCC)CCC

*A*
1: 8; 2: 15; 3: -5; 4: 1

###

experiment: NCI Yeast Anticancer Drug Screen. Data for the bub3 strain (AID 167); conditions: S. cerevisiae bub3 mutant strain, at 50.0 µM (retest, dose inferred, filed as 5.0), stronger effect = higher value
This is part of a sample that, as a whole, favours compounds with a hit. Of some 79,000 tested, about 15% had one in any assay.
Threshold check on growth inhibition: at or above 90% gives MET, strictly below gives NOT MET.

*Q* Hi, just wondering whether `CCC(/C=C/c1ccccc1)=N\Nc1ccc(Cl)c(Cl)c1` shows growth inhibition of 90% or higher.
*A* MET

*Q* Hi, just wondering whether O=S(=O)(c1cccc(C(F)(F)F)c1)N1c2ccccc2-n2cccc2C1c1cccnc1 (configuration not stated) shows growth inhibition of 90% or higher.
*A* MET

*Q* Hi, just wondering whether `Cc1c2c(nc3ccccc13)C(=O)c1cccnc1C2=O` shows growth inhibition of 90% or higher.
*A* NOT MET

*Q* Hi, just wondering whether `CNC(=O)OCc1c(COC(=O)NC)c(C)n(-c2ccc(Br)cc2)c1C` shows growth inhibition of 90% or higher.
*A* NOT MET

*Q* Hi, just wondering whether `CCN(CC)CCNc1ccc(C)c2sc3ccc(O)cc3c(=O)c12` shows growth inhibition of 90% or higher.
*A* MET

*Q* Hi, just wondering whether `CCCCCCNCCCNc1c2ccccc2nc2cccc([N+](=O)[O-])c12` shows growth inhibition of 90% or higher.
*A* MET

*Q* Hi, just wondering whether `CC(C)OC(=O)NNc1cccc(Cl)c1` shows growth inhibition of 90% or higher.
*A* MET
